test: Pharmacokinetics of XXD ingredients in diabetic rat plasma (LC-MS/MS); format: in vivo; settings: male, Sprague-Dawley, rat, in vivo, po; XXD 2.5 g/kg intragastric gavage for 12 weeks, diabetic rats, plasma, mean ± SD n = 8; read-out: C max
outcomeMeasure: Cmax (ng/mL)
Give your result in ng/mL as a bare value.

Reported Cmax, compound Cc1cc(O)c2c(c1)C(=O)c1cc(O)cc(O)c1C2=O : ____
22

###

experiment: Pharmacokinetics of XXD ingredients in diabetic rat plasma (LC-MS/MS); format: in vivo; details: male, Sprague-Dawley, rat, po; XXD 1.25 g/kg intragastric gavage for 12 weeks, diabetic rats, plasma, mean ± SD n = 8; read-out: C max
outcomeMeasure: Cmax

> print(dat)
                                   compound       val
1  COc1ccc2cc3[n+](cc2c1OC)CCc1cc2c(cc1-3)OCO2  51 ng/mL

Reported Cmax, compound COc1c(O)cc(O)c2c(=O)cc(-c3ccccc3)oc12 : ____
47 ng/mL

Reported Cmax, compound COc1c(O[C@@H]2O[C@H](C(=O)O)[C@@H](O)[C@H](O)[C@H]2O)cc(O)c2c(=O)cc(-c3ccccc3)oc12 [Wogonoside, wogonoside] : ____
1140 ng/mL

###

test: Pharmacokinetics of XXD ingredients in diabetic rat plasma (LC-MS/MS); type: in vivo; settings: male, Sprague-Dawley, in vivo, po; after ig administration of XXD for 12 weeks, diabetic rat plasma; read-out: time of peak concentrations (converted)
outcomeMeasure: Tmax (min)
Give your result in min as a bare value.

Reported Tmax, compound Cc1cc(O)c2c(c1)C(=O)c1cc(O)cc(O)c1C2=O : ____
30

###

assay: Pharmacokinetics of XXD ingredients in diabetic rat plasma (LC-MS/MS); type: in vivo; conditions: male, Sprague-Dawley, rat, in vivo, po; XXD 1.25 g/kg intragastric gavage for 12 weeks, diabetic rats, plasma, mean ± SD n = 8; read-out: AUC0–24 h
outcomeMeasure: AUC(0-t) (ng·h/mL)
Give your result in ng·h/mL as a bare value.

Reported AUC(0-t), compound Cc1cc(O)c2c(c1)C(=O)c1cc(O)cc(O)c1C2=O [Emodin, emodin] : ____
61

###

assay: Pharmacokinetics of XXD ingredients in diabetic rat plasma (LC-MS/MS); type: in vivo; details: male, Sprague-Dawley, rat, in vivo, po; XXD 2.5 g/kg intragastric gavage for 12 weeks, diabetic rats, plasma, mean ± SD n = 8; read-out: AUC0–24 h
outcomeMeasure: AUC(0-t)

Reported AUC(0-t), compound Cc1cc(O)c2c(c1)C(=O)c1cc(O)cc(O)c1C2=O : ____
119 ng·h/mL

###

Assay: Pharmacokinetics of XXD ingredients in diabetic rat plasma (LC-MS/MS)
Format: in vivo
Conditions: male, Sprague-Dawley, rat, in vivo, po, 1.25 g/kg
Protocol: Male Sprague-Dawley rats (90−100 g) were purchased from the Shanghai Slac Laboratory Animal Co. (Shanghai, China). The rats were housed in an air-conditioned room at 22–24°C under a 12-h dark/light cycle and were given food and water at libitum. All animal experiments were conducted in accordance with the institutional guidelines for the care and use of laboratory animals at Shanghai University of TCM. […]
outcomeMeasure: Cmax
Report the figure along with its unit, number first.

Reported Cmax, compound COc1cc2c(cc1OC)-c1cc3ccc(OC)c(OC)c3c[n+]1CC2 : ____
17 ng/mL

###

test: Pharmacokinetics of XXD ingredients in diabetic rat plasma (LC-MS/MS); type: in vivo; conditions: male, Sprague-Dawley, rat, in vivo, po, 1.25 g/kg
outcomeMeasure: AUC(0-t) (ng·h/mL)
Give your result in ng·h/mL as a bare value.

Reported AUC(0-t), compound COc1cc2c(cc1OC)-c1cc3ccc(OC)c(OC)c3c[n+]1CC2 [Palmatine, palmatine] : ____
113

###

test: Pharmacokinetics of XXD ingredients in diabetic rat plasma (LC-MS/MS); type: in vivo; settings: male, Sprague-Dawley, rat, in vivo, po; XXD 1.25 g/kg intragastric gavage for 12 weeks, diabetic rats, plasma, mean ± SD n = 8; read-out: C max
outcomeMeasure: Cmax
Report the figure along with its unit, number first.

Reported Cmax, compound Cc1cc(O)c2c(c1)C(=O)c1cc(O)cc(O)c1C2=O [Emodin, emodin] : ____
13 ng/mL

###

Entries and their AUC(0-t)
Test: Pharmacokinetics of XXD ingredients in diabetic rat plasma (LC-MS/MS)
Assay type: in vivo
Details: male, Sprague-Dawley, rat, po; XXD 1.25 g/kg intragastric gavage for 12 weeks, diabetic rats, plasma, mean ± SD n = 8; read-out: AUC0–24 h
Experimental: Male Sprague-Dawley rats (90−100 g) were purchased from the Shanghai Slac Laboratory Animal Co. (Shanghai, China). The rats were housed in an air-conditioned room at 22–24°C under a 12-h dark/light cycle and were given food and water at libitum. All animal experiments were conducted in accordance with the institutional guidelines for the care and use of laboratory animals at Shanghai University of TCM. […]
Give your result in ng·h/mL as a bare value.

> print(dat)
                                   compound  outcomemeasure   val
1  COc1ccc2cc3[n+](cc2c1OC)CCc1cc2c(cc1-3)OCO2        AUC(0-t)   757
2  O=C(O)[C@H]1O[C@@H](Oc2cc3oc(-c4ccccc4)cc(=O)c3c(O)c2O)[C@H](O)[C@@H](O)[C@@H]1O        AUC(0-t)  4700
3  O=C(O)c1cc(O)c2c(c1)C(=O)c1cccc(O)c1C2=O        AUC(0-t)  1100
4  COc1c(O[C@@H]2O[C@H](C(=O)O)[C@@H](O)[C@H](O)[C@H]2O)cc(O)c2c(=O)cc(-c3ccccc3)oc12 [Wogonoside, wogonoside]        AUC(0-t)  3460
5  COc1cc2c(cc1O)CC[n+]1cc3c(OC)c(OC)ccc3cc1-2        AUC(0-t)   172

Then this compound:
Reported AUC(0-t), compound COc1c(O)cc(O)c2c(=O)cc(-c3ccccc3)oc12 : ____
154

###

test: Pharmacokinetics of XXD ingredients in diabetic rat plasma (LC-MS/MS); assay type: in vivo; details: male, Sprague-Dawley, rat, po; XXD 2.5 g/kg intragastric gavage for 12 weeks, diabetic rats, plasma, mean ± SD n = 8; read-out: C max
Lab note: compare Cmax against 100 ng/mL. Equal or greater, write MET. Smaller, write NOT MET.

Observe how each entry below is paired with its result.
> print(dat)
                                   compound  labelvalue
1  O=C(O)c1cc(O)c2c(c1)C(=O)c1cccc(O)c1C2=O         MET
2  O=C(O)[C@H]1O[C@@H](Oc2cc3oc(-c4ccccc4)cc(=O)c3c(O)c2O)[C@H](O)[C@@H](O)[C@@H]1O         MET

Is reported Cmax greater than or equal to 100 ng/mL here: COc1ccc2cc3[n+](cc2c1OC)CCc1cc2c(cc1-3)OCO2
MET

Is reported Cmax greater than or equal to 100 ng/mL here: COc1c(O)cc(O)c2c(=O)cc(-c3ccccc3)oc12
MET

Is reported Cmax greater than or equal to 100 ng/mL here: COc1cc2c(cc1O)CC[n+]1cc3c(OC)c(OC)ccc3cc1-2
NOT MET

Is reported Cmax greater than or equal to 100 ng/mL here: COc1c(O[C@@H]2O[C@H](C(=O)O)[C@@H](O)[C@H](O)[C@H]2O)cc(O)c2c(=O)cc(-c3ccccc3)oc12 [Wogonoside, wogonoside]
MET

###

Entries and their AUC(0-t)
experiment: Pharmacokinetics of XXD ingredients in diabetic rat plasma (LC-MS/MS); format: in vivo; details: male, Sprague-Dawley, rat, po; XXD 2.5 g/kg intragastric gavage for 12 weeks, diabetic rats, plasma, mean ± SD n = 8; read-out: AUC0–24 h
Give your result in ng·h/mL as a bare value.

Solved cases below.
> print(dat)
                                   compound  outcomemeasure  unitofmeasurement   val
1  COc1ccc2cc3[n+](cc2c1OC)CCc1cc2c(cc1-3)OCO2        AUC(0-t)            ng·h/mL  1730
2  O=C(O)c1cc(O)c2c(c1)C(=O)c1cccc(O)c1C2=O        AUC(0-t)            ng·h/mL  2790

Reported AUC(0-t), compound COc1cc2c(cc1O)CC[n+]1cc3c(OC)c(OC)ccc3cc1-2 : ____
201

Reported AUC(0-t), compound COc1c(O)cc(O)c2c(=O)cc(-c3ccccc3)oc12 : ____
423

Reported AUC(0-t), compound COc1c(O[C@@H]2O[C@H](C(=O)O)[C@@H](O)[C@H](O)[C@H]2O)cc(O)c2c(=O)cc(-c3ccccc3)oc12 [Wogonoside, wogonoside] : ____
8880

Reported AUC(0-t), compound O=C(O)[C@H]1O[C@@H](Oc2cc3oc(-c4ccccc4)cc(=O)c3c(O)c2O)[C@H](O)[C@@H](O)[C@@H]1O : ____
16100

Reference for the values: paper PMC3713598
